// data source = patent US11242354B2

System: HeLa
Test Description: MTT test for inhibition of tumor cells, HeLa
Format: cell-based
Stated Conditions: 48 h
pIC50: −log10 of the molar value.
Outcome label depends on pIC50 relative to 5: at/above gives condition met, below gives condition not met.

1) COc1cc([C@@H]2c3cc4c(cc3[C@@H](Sc3nc(-c5ccncc5)cs3)[C@H]3COC(=O)[C@H]23)OCO4)cc(OC)c1OC: condition met
2) COc1cc(C2c3cc4c(cc3C(Sc3nc5ncccc5[nH]3)C3COC(=O)C23)OCO4)cc(OC)c1OC (stereo not drawn): condition not met
3) COc1cc([C@@H]2c3cc4c(cc3[C@@H](Sc3nc(-c5ccncc5)cs3)[C@H]3COC(=O)[C@H]23)OCO4)cc(OC)c1O: condition not met
4) COc1cc(C2c3cc4c(cc3C(Sc3nc5cc(OC(F)F)ccc5[nH]3)C3COC(=O)C23)OCO4)cc(OC)c1OC (stereo not drawn): condition met
5) COc1cc(C2c3cc4c(cc3C(Sc3cc(C(F)(F)F)ccn3)C3COC(=O)C23)OCO4)cc(OC)c1O (stereo not drawn): condition met
6) COc1cc(C2c3cc4c(cc3C(Sc3nnnn3-c3ccccc3)C3COC(=O)C23)OCO4)cc(OC)c1OC (stereo not drawn): condition not met

Quick check: does COc1cc(C2c3cc4c(cc3C(Sc3nc5cc(F)ccc5s3)C3COC(=O)C23)OCO4)cc(OC)c1OC (stereo not drawn) have pIC50 greater than or equal to 5?
condition met

Does the compound COc1cc(C2c3cc4c(cc3C(Sc3cc(C(F)(F)F)ccn3)C3COC(=O)C23)OCO4)cc(OC)c1OC (stereo not drawn) have recorded pIC50 that is 5 or more?
condition met

Exam item: decide whether the reported pIC50 for COc1cc(C2c3cc4c(cc3C(Sc3ccc5ccccc5c3)C3COC(=O)C23)OCO4)cc(OC)c1OC (stereo not drawn) is at least 5.
condition met

I'd appreciate it if you could say whether COc1cc(C2c3cc4c(cc3C(Sc3nccc(C(F)(F)F)n3)C3COC(=O)C23)OCO4)cc(OC)c1O (stereo not drawn) has pIC50 at least equal to 5.
condition not met

###

Kindly state pIC50 for each of the entries shown.
Tested on: human normal hepatocytes HL-7702
Test Description: MTT test on human normal hepatocytes HL-7702
Stated Conditions: read-out: IC50 HL-7702; human normal hepatocytes HL-7702, MTT, 48 h
Numbers only, as −log10 of the molar value.

Solved cases below.
1. COc1cc(C2c3cc4c(cc3C(Sc3nc5ncccc5[nH]3)C3COC(=O)C23)OCO4)cc(OC)c1OC (stereo not shown) [Compound 21]: 4.25
2. COc1cc(C2c3cc4c(cc3C(Sc3ccc(F)cc3)C3COC(=O)C23)OCO4)cc(OC)c1OC (stereo not drawn) [Compound 5, 4β-S-(4-fluorobenzene-1)-podophyllotoxin]: 4.35
3. COc1cc(C2c3cc4c(cc3C(Sc3nnnn3-c3ccccc3)C3COC(=O)C23)OCO4)cc(OC)c1OC (stereo not shown) [Compound 23]: 4.06
4. COc1cc([C@@H]2c3cc4c(cc3[C@@H](Sc3nc(-c5ccncc5)cs3)[C@H]3COC(=O)[C@H]23)OCO4)cc(OC)c1OC [Compound 27]: 4.15

Please give pIC50 for each item listed below.
1. COc1cc(C2c3cc4c(cc3C(Sc3nc5cc(OC(F)F)ccc5[nH]3)C3COC(=O)C23)OCO4)cc(OC)c1O (stereo not shown) [Compound 18]
2. COc1cc(C2c3cc4c(cc3C(Sc3nc5cc(F)ccc5s3)C3COC(=O)C23)OCO4)cc(OC)c1OC (stereo not shown) [Compound 7]
3. COc1cc(C2c3cc4c(cc3C(Sc3nc5cc(C)ccc5o3)C3COC(=O)C23)OCO4)cc(OC)c1O (stereo not shown) [Compound 14]
4. COc1cc(C2c3cc4c(cc3C(Sc3ccc5ccccc5c3)C3COC(=O)C23)OCO4)cc(OC)c1OC (stereo not drawn) [Compound 19, 4β-S-(naphthalen-2)-podophyllotoxin]

4.95
4.01
4.10
4.04

List pIC50 for every entry below, keeping the order given.
1. COc1cc(C2c3cc4c(cc3C(Sc3cc(C(F)(F)F)ccn3)C3COC(=O)C23)OCO4)cc(OC)c1OC (stereo not shown) [Compound 1]
2. COc1cc([C@@H]2c3cc4c(cc3[C@@H](Sc3nc(-c5ccncc5)cs3)[C@H]3COC(=O)[C@H]23)OCO4)cc(OC)c1O [Compound 28]
3. COc1cc(C2c3cc4c(cc3C(Sc3cc(C(F)(F)F)ccn3)C3COC(=O)C23)OCO4)cc(OC)c1O (stereo not shown) [Compound 2]
4. COc1cc(C2c3cc4c(cc3C(Sc3nc5cc(OC(F)F)ccc5[nH]3)C3COC(=O)C23)OCO4)cc(OC)c1OC (stereo not shown) [Compound 17]
5. COc1cc(C2c3cc4c(cc3C(Sc3nccc(C(F)(F)F)n3)C3COC(=O)C23)OCO4)cc(OC)c1OC (stereo not shown) [Compound 3]
6. COc1cc(C2c3cc4c(cc3C(Sc3nccc(C(F)(F)F)n3)C3COC(=O)C23)OCO4)cc(OC)c1O (stereo not shown) [Compound 4]

[4.24, 4.22, 4.37, 5.09, 4.16, 4.26]

Report value only: pIC50, human normal hepatocytes HL-7702, COc1cc(C2c3cc4c(cc3C(Sc3nc5cc(C)ccc5o3)C3COC(=O)C23)OCO4)cc(OC)c1OC (stereo not shown) [Compound 13]
4.22

###

Tested on: HeLa
Test Description: MTT test for inhibition of tumor cells, HeLa
Format: cell-based
Stated Conditions: 48 h
Value Type: pIC50
Give bare numbers, as −log10 of the molar value.

Previously resolved entries follow.
1. COc1cc(C2c3cc4c(cc3C(Sc3nc5cc(C)ccc5o3)C3COC(=O)C23)OCO4)cc(OC)c1O (centres unmarked): 4.92
2. COc1cc(C2c3cc4c(cc3C(Sc3nc5cc(OC(F)F)ccc5[nH]3)C3COC(=O)C23)OCO4)cc(OC)c1O (centres unmarked): 5.12

I'm hoping you can list pIC50 for every compound here, please.
1. COc1cc(C2c3cc4c(cc3C(Sc3nc5cc(C)ccc5o3)C3COC(=O)C23)OCO4)cc(OC)c1OC (centres unmarked)
2. COc1cc(C2c3cc4c(cc3C(Sc3ccc(F)cc3)C3COC(=O)C23)OCO4)cc(OC)c1OC (centres unmarked)

1. 5.03
2. 5.02

# return recorded pIC50 for input COc1cc(C2c3cc4c(cc3C(Sc3nccc(C(F)(F)F)n3)C3COC(=O)C23)OCO4)cc(OC)c1OC (centres unmarked)
5.00
